- System Tested: KRAS G12S (Homo sapiens (Human), UniProt P01116+P62937, G12S)
- Sequence (P01116-2 other isoform, or with tags, fused parts or gaps G12S): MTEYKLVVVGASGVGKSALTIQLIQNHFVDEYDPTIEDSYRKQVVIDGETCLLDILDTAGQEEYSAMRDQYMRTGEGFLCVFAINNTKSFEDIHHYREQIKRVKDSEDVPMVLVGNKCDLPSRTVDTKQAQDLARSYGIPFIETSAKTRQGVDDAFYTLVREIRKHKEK
- Sequence (P62937 whole entry): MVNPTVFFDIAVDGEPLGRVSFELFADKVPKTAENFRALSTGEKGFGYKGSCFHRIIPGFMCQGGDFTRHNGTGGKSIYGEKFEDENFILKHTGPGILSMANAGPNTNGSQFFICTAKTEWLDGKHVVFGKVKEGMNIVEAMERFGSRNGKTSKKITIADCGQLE
- Assay Overview: Ras-Raf (BRAF RBD) disruption / FRET / MOA assay, KRAS G12S
- Format: biochemical
- Recorded Conditions: Ras-Raf disruption/FRET/MOA assay; class symbols; read-out: KRAS G12S FRET data IC50
pIC50: −log10 of the molar value.
Metric: pIC50

CCn1c(-c2cccnc2[C@H](C)OC)c2c3cc(ccc31)-c1cccc(c1)C[C@H](NC(=O)[C@@H](COC1CN(C(=O)C#CC(C)(C)O)C1)C(C)C)C(=O)N1CCC[C@H](N1)C(=O)OCC(C)(C)C2 (atropisomer, axis not shown) [Example A708] = < 5.00
C=CC(=O)N1CC[C@H](C(=O)N(C)[C@H](C(=O)NC2C[C@@H]3CN(CCO3)c3ccc4c(c3)c(c(-c3cccnc3[C@H](C)OC)n4CC)CC(C)(C)COC(=O)[C@@H]3CC(Br)CN(N3)C2=O)C(C)C)C1 (some centres unmarked) [Example A313] = < 5.00
CC#CC(=O)N1CC[C@H](C(=O)N(C)[C@H](C(=O)N[C@H]2Cc3nc(cs3)-c3ccc4c(c3)c(c(-c3cccnc3[C@H](C)OC)n4CC)CC(C)(C)COC(=O)[C@@H]3CCCN(N3)C2=O)C2CCCC2)C1 (atropisomer, axis not shown) [Example A309] = 5.00 to 6.00
C=CC(=O)N1CCO[C@H]2CN(C(=O)N(C)[C@H](C(=O)N[C@H]3Cc4nc(cs4)-c4ccc5c(c4)c(c(-c4cccnc4[C@H](C)OC)n5CC)CC(C)(C)COC(=O)[C@@H]4CCCN(N4)C3=O)C(C)C)C[C@H]21 (atropisomer, axis not shown) [Example A706] = 5.00 to 6.00
C=CC(=O)N1CC2(CCN2C(=O)N(C)[C@H](C(=O)N[C@H]2Cc3nc(n(C)n3)-c3ccc4c(c3)c(c(-c3cccnc3[C@H](C)OC)n4CC)CC(C)(C)COC(=O)[C@@H]3CCCN(N3)C2=O)C(C)C)C1 (atropisomer, axis not shown) [Example A612] = 6.00 to 7.00

Problem: GET pIC50 where system = KRAS G12S (Homo sapiens (Human), UniProt P01116+P62937, G12S) and item = CCn1c(-c2cccnc2COC)c2c3cc(ccc31)-c1cc(O)cc(c1)C[C@H](NC(=O)[C@H](C(C)C)N(C)C(=O)[C@H]1CCN(C(=O)C#CC3(N(C)C)CC3)C1)C(=O)N1CCC[C@H](N1)C(=O)OCC(C)(C)C2 [Example A238]
Result: 5.00 to 6.00

Problem: # return pIC50 for CCn1c(-c2cnccc2COC)c2c3cc(ccc31)-c1cncc(c1)C[C@H](NC(=O)[C@H](C(C)C)N(C)C(=O)[C@H]1CCN(C(=O)C#CCN(C)C)C1)C(=O)N1CCC[C@H](N1)C(=O)OCC(C)(C)C2 [Example A139] , test system: KRAS G12S (Homo sapiens (Human), UniProt P01116+P62937, G12S)
Result: < 5.00

Problem: Report pIC50 from KRAS G12S (Homo sapiens (Human), UniProt P01116+P62937, G12S) testing of C=CC(=O)N1CC[C@H](C(=O)N(C)[C@H](C(=O)N[C@H]2Cc3cc(O)cc(c3)-c3ccc4c(c3)c(c(-c3ccc(CN5CC[C@@H](O)C5)cc3)n4CC)CC(C)(C)COC(=O)[C@@H]3CCCN(N3)C2=O)C(C)C)C1 [Examples A001]
Result: 5.00 to 6.00

* * *

- System Tested: K-Ras G13C (Homo sapiens (Human), UniProt P01116+P62937, G13C)
- Sequence (P01116-2 other isoform, or with tags, fused parts or gaps G13C): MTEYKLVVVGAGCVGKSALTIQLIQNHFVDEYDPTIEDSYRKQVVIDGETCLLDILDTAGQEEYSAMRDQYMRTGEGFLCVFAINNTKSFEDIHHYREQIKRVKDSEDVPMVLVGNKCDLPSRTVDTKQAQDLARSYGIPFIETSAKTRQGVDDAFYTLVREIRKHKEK
- Sequence (P62937 whole entry): as the sequence (P62937 whole entry) above
- Assay Overview: Ras-Raf (BRAF RBD) disruption / FRET / MOA assay, KRAS G13C
- Type: biochemical
- Recorded Conditions: KRAS G13C; Ras-Raf disruption/FRET/MOA assay; read-out: IC50* KRAS G13C FRET data
pIC50: −log10 of the molar value.
Metric: pIC50

Problem: Output pIC50 of C=CC(=O)N(C)[C@H]1CC1N(C)C(=O)N(C)[C@H](C(=O)N[C@H]1Cc2nc(cs2)-c2ccc3c(c2)c(c(-c2cccnc2[C@H](C)OC)n3CC)CC(C)(C)COC(=O)[C@@H]2CCCN(N2)C1=O)C(C)C (some centres unmarked)
Result: 6.00 to 7.00

Problem: Give the reported value of pIC50 for this record: C=CC(=O)N1CCO[C@H]2CN(C(=O)N(C)[C@H](C(=O)N[C@H]3Cc4cccc(n4)-c4ccc5c(c4)c(c(-c4cccnc4[C@H](C)OC)n5CC)CC(C)(C)COC(=O)[C@@H]4CCCN(N4)C3=O)C(C)C)C[C@H]21 (atropisomer, axis not shown)
Result: 7.00 to 8.00

* * *

- System Tested: KRAS G12D (Homo sapiens (Human), UniProt P01116+P62937, G12D)
- Sequence (P01116-2 other isoform, or with tags, fused parts or gaps G12D): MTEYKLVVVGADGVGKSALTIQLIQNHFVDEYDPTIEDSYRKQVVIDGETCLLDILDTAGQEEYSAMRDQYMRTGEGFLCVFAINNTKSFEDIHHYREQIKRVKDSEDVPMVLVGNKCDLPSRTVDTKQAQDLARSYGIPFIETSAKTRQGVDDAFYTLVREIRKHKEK
- Sequence (P62937 whole entry): as the sequence (P62937 whole entry) above
- Assay Overview: Ras-Raf (BRAF RBD) disruption / FRET / MOA assay, KRAS G12D
- Assay type: biochemical
- Recorded Conditions: Ras-Raf disruption/FRET/MOA assay; class symbols; read-out: KRAS G12D FRET data IC50
Metric: IC50

Reference set (2 entries):
CCn1c(-c2cccnc2)c2c3cc(ccc31)-c1cc(O)cc(c1)C[C@H](NC(=O)[C@H](C(C)C)N(C)C(=O)[C@H]1CCN(C(=O)C#CCN(C)C)C1)C(=O)N1CCC[C@H](N1)C(=O)OCC(C)(C)C2 = 1 to 10 µM
C=CC(=O)N1CC(OCC(C(=O)N[C@H]2Cc3cc(cc(C(F)F)c3)-c3ccc4c(c3)c(c(-c3cccnc3[C@H](C)OC)n4CC)CC(C)(C)COC(=O)[C@@H]3CCCN(N3)C2=O)C(C)C)C1 (mixture of isomers) = > 10 µM

Problem: Specify measured IC50 for C=CC(=O)N1C[C@@H]2C[C@H]1CN2C(=O)N(C)[C@H](C(=O)N[C@H]1Cc2nc(cs2)-c2ccc3c(c2)c(c(-c2cccnc2[C@H](C)OC)n3CC)CC(C)(C)COC(=O)[C@@H]2CCCN(N2)C1=O)C(C)C (atropisomer, axis not shown) .
Result: 0.1 to 1 µM

Problem: Fill in reported IC50 for this entry: C=CC(=O)N1CCN(C(=O)N(C)[C@H](C(=O)N[C@H]2Cc3nc(cs3)-c3ccc4c(c3)c(c(-c3cccnc3[C@H](C)OC)n4CC(F)(F)F)CC(C)(C)COC(=O)[C@@H]3CCCN(N3)C2=O)C(C)C)CC1 (atropisomer, axis not shown)
Result: 0.01 to 0.1 µM

Problem: Given C=CC(=O)NCCN1CCN(C(=O)N(C)[C@H](C(=O)N[C@H]2Cc3nc(cs3)-c3ccc4c(c3)c(c(-c3cccnc3[C@H](C)OC)n4CC)CC(C)(C)COC(=O)[C@@H]3CCCN(N3)C2=O)C(C)C)CC1 (atropisomer, axis not shown) , respond with its IC50.
Result: 1 to 10 µM

Problem: Provide only the value of recorded IC50 for C=CC(=O)N1CC[C@H](C(=O)N(C)[C@H](C(=O)N[C@H]2Cc3cc(O)cc(c3)-c3ccc4c(c3)c(c(-c3ccccc3OC)n4CC)CC(C)(C)COC(=O)[C@@H]3CCCN(N3)C2=O)C(C)C)C1
Result: > 10 µM

Problem: Dear colleague, please send me the reported IC50 for C=CC(=O)N1CC[C@@](C#N)(C(=O)N(C)[C@H](C(=O)N[C@H]2Cc3cccc(c3)-c3ccc4c(c3)c(c(-c3cccnc3[C@H](C)OC)n4CC)CC(C)(C)COC(=O)[C@@H]3CCCN(N3)C2=O)C(C)C)C1 (atropisomer, axis not shown) when you can.
Result: 1 to 10 µM

Problem: Answer with the recorded IC50 of C=CC(=O)N1C[C@@H](N(C)C(=O)N(C)[C@H](C(=O)N[C@H]2Cc3nc(cs3)-c3ccc4c(c3)c(c(-c3cccnc3[C@H](C)OC)n4CC)CC(C)(C)COC(=O)[C@@H]3CCCN(N3)C2=O)C(C)C)[C@@H](C)C1 (atropisomer, axis not shown) only.
Result: 1 to 10 µM

* * *

- System Tested: NRAS G12C (Homo sapiens (Human), UniProt P01111+P62937, G12C)
- Sequence (P01111 whole entry G12C): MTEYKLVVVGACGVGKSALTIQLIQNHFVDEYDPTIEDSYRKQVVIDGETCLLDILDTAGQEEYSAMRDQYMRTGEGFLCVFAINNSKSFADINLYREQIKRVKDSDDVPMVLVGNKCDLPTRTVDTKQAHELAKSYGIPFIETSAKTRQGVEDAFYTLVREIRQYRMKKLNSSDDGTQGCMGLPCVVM
- Sequence (P62937 whole entry): as the sequence (P62937 whole entry) above
- Assay Overview: Ras-Raf (BRAF RBD) disruption / FRET / MOA assay, NRAS G12C
- Assay type: biochemical
- Recorded Conditions: read-out: IC50* NRAS G12C FRET data
Metric: IC50

CO[C@@H](C)c1ncccc1-c1c2c3cc(ccc3n1CC(F)(F)F)-c1csc(n1)C[C@H](NC(=O)[C@@H](COC1CN(C(=O)C#CC(C)(C)N(C)C)C1)C(C)C)C(=O)N1CCC[C@H](N1)C(=O)OCC(C)(C)C2 (atropisomer, axis not shown) = < 10 nM

Problem: Indicate its recorded IC50; the compound in question is CCn1c(-c2cccnc2[C@H](C)OC)c2c3cc(ccc31)-c1cc(CF)cc(c1)C[C@H](NC(=O)[C@H](C(C)C)N(C)C(=O)[C@H]1CCN(C(=O)C#CC(C)(C)N(C)C)C1)C(=O)N1CCC[C@H](N1)C(=O)OCC(C)(C)C2 (atropisomer, axis not shown)
Result: < 10 nM

Problem: Supply IC50 value. Item: C=CC(=O)N1CC(OC[C@H](C(=O)N[C@H]2Cc3cc(O)cc(c3)-c3ccc4c(c3)c(c(-c3cccnc3COC)n4CC)CC(C)(C)COC(=O)[C@@H]3CCCN(N3)C2=O)C(C)C)C1
Result: 100 to 1000 nM

Problem: Could you please provide reported IC50 for C/C=C/S(=O)(=O)N1CC[C@H](C(=O)N(C)[C@H](C(=O)N[C@H]2Cc3cc(O)cc(c3)-c3ccc4c(c3)c(c(-c3cccnc3[C@H](C)OC)n4CC)CC(C)(C)COC(=O)[C@@H]3CCCN(N3)C2=O)C(C)C)C1 (atropisomer, axis not shown) ? Thanks!
Result: 100 to 1000 nM
